This section presents compounds with their documented pIC50 values.
Tested on: Entamoeba histolytica
EXPERIMENTAL PROTOCOL: Antiprotozoal activity against Entamoeba histolytica Hk-9 trophozoites after 70 hrs by resazurin-based spectrophotometric assay
Type: functional, organism-based
SETUP CONDITIONS: Hk-9, 70 h
pIC50 is defined as minus the log10 of a concentration measured in mol/L.

INSERT INTO results (compound, test_readout, observed_result) VALUES
  ('c1ccc2[nH]c(-c3ccc(OCCCCOc4ccc(-c5nc6ccccc6[nH]5)cc4)cc3)nc2c1', 'pIC50', 5.09),
  ('c1ccc2[nH]c(-c3ccc(OCCCCCCCCOc4ccc(-c5nc6ccccc6[nH]5)cc4)cc3)nc2c1', 'pIC50', 4.18),
  ('c1cc(OCCCCCCCCCCOc2cccc(-c3nc4ccccc4[nH]3)c2)cc(-c2nc3ccccc3[nH]2)c1', 'pIC50', 4.65),
  ('c1cc(OCCOc2cccc(-c3nc4ccccc4[nH]3)c2)cc(-c2nc3ccccc3[nH]2)c1', 'pIC50', 4.08),
  ('c1cc(OCCCCOc2cccc(-c3nc4ccccc4[nH]3)c2)cc(-c2nc3ccccc3[nH]2)c1', 'pIC50', 3.68),
  ('Cc1ncc([N+](=O)[O-])n1CCO [METRONIDAZOLE]', 'pIC50', 5.24);

Asked: Can you share its pIC50? I mean this compound: c1ccc2[nH]c(-c3ccc(OCCCCCCCOc4ccc(-c5nc6ccccc6[nH]5)cc4)cc3)nc2c1
Given back: 4.66

Asked: Can you share its pIC50? I mean this compound: c1ccc2[nH]c(-c3ccc(OCCCCCOc4ccc(-c5nc6ccccc6[nH]5)cc4)cc3)nc2c1
Given back: 4.64
